Where these numbers come from: patent US3959272A

PROTOCOL TEXT: Analgesic activity: Siegmund's test (phenylbenzoquinone painful reactions)
Assay type: in vivo
CONDITION DESCRIPTION: Mus musculus, po; 128 mg/kg orally; read-out: percentage inhibition of reactions
// label = Met if inhibition in vivo at 128 mg/kg is not less than 60%, otherwise Not met

Incoming: Does the compound O=C(OCCN1CCOCC1)c1cccnc1Nc1ccccc1 [Example 5, β-Morpholino ethyl 2-anilino nicotinate] have recorded inhibition in vivo at 128 mg/kg that is 60% or more?
Outgoing: Not met

Incoming: Dear colleague, could you confirm whether Cc1cccc(Cl)c1Nc1ncccc1C(=O)OCCN1CCOCC1 has inhibition in vivo at 128 mg/kg at or above 60%?
Outgoing: Not met

Incoming: Is inhibition in vivo at 128 mg/kg for Cc1cccc(C)c1Nc1ncccc1C(=O)OCCN1CCOCC1 at or above 60%?
Outgoing: Not met

Incoming: Check this compound for inhibition in vivo at 128 mg/kg at or above 60%: Cc1ccc(Nc2ncccc2C(=O)OCCN2CCOCC2)cc1Cl
Outgoing: Not met

Incoming: Quick check: does Cc1cccc(Nc2ncccc2C(=O)OCCN2CCCCC2)c1C [Example 2, β-Piperidino ethyl nixylate] have inhibition in vivo at 128 mg/kg greater than or equal to 60%?
Outgoing: Met

Incoming: Is it the case that Cc1cccc(Nc2ncccc2C(=O)OCCN2CCOCC2)c1C [Example 1, β-Morpholino ethyl nixylate] has inhibition in vivo at 128 mg/kg reaching or exceeding 60%?
Outgoing: Met

Incoming: Answer whether inhibition in vivo at 128 mg/kg of Cc1cccc(Nc2ncccc2C(=O)OCCN2CCN(C)CC2)c1C [Example 4, β-(N-methylpiperazino)ethyl nixylate] is greater than or equal to 60%.
Outgoing: Met

Incoming: Check the entry Cc1cccc(Nc2ncccc2C(=O)OCC(C)(C)N(C)C)c1C [Example 3, 2-Dimethylamino-2-methylpropyl nixylate] : does inhibition in vivo at 128 mg/kg equal or exceed 60%?
Outgoing: Not met

* * *

PROTOCOL TEXT: Acute toxicity in the rat
CONDITION DESCRIPTION: in vivo, po
READOUT KIND: LD50 at 168 h

Incoming: Could you share which LD50 at 168 h value was measured for Cc1cccc(Nc2ncccc2C(=O)OCCN2CCOCC2)c1C [Example 1, β-Morpholino ethyl nixylate] ?
Outgoing: > 2350 mg/kg

* * *

PROTOCOL TEXT: Acute toxicity in the mouse
CONDITION DESCRIPTION: in vivo, iv
READOUT KIND: LD50 at 168 h (mg/kg)
A number alone suffices; assume mg/kg.

Incoming: Item under review: Cc1cccc(Nc2ncccc2C(=O)OCCN2CCOCC2)c1C [Example 1, β-Morpholino ethyl nixylate] . Reported LD50 at 168 h?
Outgoing: 110

* * *

PROTOCOL TEXT: Antagonism of convulsions produced by cardiazole
Format: in vivo
CONDITION DESCRIPTION: Mus musculus, ip; 128 mg/kg intraperitoneally; read-out: Percentage inhibition of tonic convulsions
Can you tell me inhibition in vivo at 128 mg/kg for the items I'm about to list?
Answer format: numeric, % implied, no suffix.

Incoming: Which inhibition in vivo at 128 mg/kg is listed for Cc1cccc(Nc2ncccc2C(=O)OCCN2CCOCC2)c1C [Example 1, β-Morpholino ethyl nixylate] ?
Outgoing: 95

Incoming: Look up inhibition in vivo at 128 mg/kg: Cc1ccc(Cl)cc1Nc1ncccc1C(=O)OCCN1CCOCC1 [Example 8]
Outgoing: 33

Incoming: Given the compound O=C(OCCN1CCOCC1)c1cccnc1Nc1ccccc1 [Example 5, β-Morpholino ethyl 2-anilino nicotinate] , what is its reported inhibition in vivo at 128 mg/kg?
Outgoing: 33

Incoming: # lookup: inhibition in vivo at 128 mg/kg of Cc1cccc(Nc2ncccc2C(=O)OCCN2CCCCC2)c1C [Example 2, β-Piperidino ethyl nixylate]
Outgoing: 100

Incoming: Need inhibition in vivo at 128 mg/kg of Cc1cccc(Nc2ncccc2C(=O)OCC(C)(C)N(C)C)c1C [Example 3, 2-Dimethylamino-2-methylpropyl nixylate] , thanks.
Outgoing: 100

Incoming: Look up inhibition in vivo at 128 mg/kg for this compound: Cc1ccc(Nc2ncccc2C(=O)OCCN2CCOCC2)cc1Cl [Example 7]
Outgoing: 9

Incoming: Using the record for Cc1cccc(Nc2ncccc2C(=O)OCCN2CCN(C)CC2)c1C [Example 4, β-(N-methylpiperazino)ethyl nixylate] , report its inhibition in vivo at 128 mg/kg.
Outgoing: 91

Incoming: What value of measured inhibition in vivo at 128 mg/kg is listed for Cc1cccc(Cl)c1Nc1ncccc1C(=O)OCCN1CCOCC1 [Example 9] ?
Outgoing: 100

* * *

PROTOCOL TEXT: Escape test
Assay type: in vivo
CONDITION DESCRIPTION: Mus musculus, ip, 0.5 h; 8 mg/kg intraperitoneally; read-out: Percentage inhibition (number of attempts to escape)
READOUT KIND: change in vivo at 8 mg/kg

Incoming: Using the record for Cc1cccc(Nc2ncccc2C(=O)OCCN2CCN(C)CC2)c1C [Example 4, β-(N-methylpiperazino)ethyl nixylate] , report its change in vivo at 8 mg/kg.
Outgoing: 2%

Incoming: Need change in vivo at 8 mg/kg of Cc1cccc(Nc2ncccc2C(=O)OCCN2CCCCC2)c1C [Example 2, β-Piperidino ethyl nixylate] , thanks.
Outgoing: 6%

Incoming: What value of change in vivo at 8 mg/kg has been reported for the following molecule? Cc1cccc(Nc2ncccc2C(=O)OCCN2CCOCC2)c1C [Example 1, β-Morpholino ethyl nixylate]
Outgoing: 6%

Incoming: Report change in vivo at 8 mg/kg for Cc1cccc(Nc2ncccc2C(=O)OCC(C)(C)N(C)C)c1C [Example 3, 2-Dimethylamino-2-methylpropyl nixylate] please.
Outgoing: -16%

* * *

PROTOCOL TEXT: Escape test
Assay type: in vivo
CONDITION DESCRIPTION: Mus musculus, ip, 0.5 h; 256 mg/kg intraperitoneally; read-out: Percentage inhibition (number of attempts to escape)
For each record, write down the corresponding change in vivo at 256 mg/kg.
Your answer is read as %, so omit the unit and give the number.

Incoming: Looking for the measured change in vivo at 256 mg/kg of Cc1ccc(Cl)cc1Nc1ncccc1C(=O)OCCN1CCOCC1 , can you help?
Outgoing: -83

Incoming: For the compound O=C(OCCN1CCOCC1)c1cccnc1Nc1ccccc1 [Example 5, β-Morpholino ethyl 2-anilino nicotinate] , what change in vivo at 256 mg/kg is on record?
Outgoing: -78

Incoming: # get_value(readout='change in vivo at 256 mg/kg', item= Cc1ccc(Nc2ncccc2C(=O)OCCN2CCOCC2)cc1Cl )
Outgoing: -96

Incoming: Could you share which change in vivo at 256 mg/kg value was measured for Cc1cccc(C)c1Nc1ncccc1C(=O)OCCN1CCOCC1 ?
Outgoing: -100

* * *

Give change in vivo at 16 mg/kg for every item shown.
PROTOCOL TEXT: Escape test
Assay type: in vivo
CONDITION DESCRIPTION: Mus musculus, ip, 0.5 h; 16 mg/kg intraperitoneally; read-out: Percentage inhibition (number of attempts to escape)
Use % as the unit, but write only the number.

Incoming: I have this compound here, Cc1cccc(Nc2ncccc2C(=O)OCC(C)(C)N(C)C)c1C [Example 3, 2-Dimethylamino-2-methylpropyl nixylate] , and I need its recorded change in vivo at 16 mg/kg.
Outgoing: -15

Incoming: Entry under review: Cc1cccc(Nc2ncccc2C(=O)OCCN2CCOCC2)c1C [Example 1, β-Morpholino ethyl nixylate] . Reported change in vivo at 16 mg/kg?
Outgoing: 3

Incoming: Looking for the measured change in vivo at 16 mg/kg of Cc1cccc(Cl)c1Nc1ncccc1C(=O)OCCN1CCOCC1 , can you help?
Outgoing: -19

Incoming: Can you share its change in vivo at 16 mg/kg? I mean this compound: Cc1cccc(Nc2ncccc2C(=O)OCCN2CCCCC2)c1C [Example 2, β-Piperidino ethyl nixylate]
Outgoing: -21

* * *

PROTOCOL TEXT: Acute toxicity in the mouse
CONDITION DESCRIPTION: in vivo, ip
READOUT KIND: LD50 at 168 h (mg/kg)
// units = mg/kg; emit number, no label

Incoming: State the recorded LD50 at 168 h for this entry: Cc1cccc(Nc2ncccc2C(=O)OCCN2CCOCC2)c1C [Example 1, β-Morpholino ethyl nixylate]
Outgoing: 700

* * *

Please go through the items and note down their change in vivo at 16 mg/kg.
PROTOCOL TEXT: Escape test
Assay type: in vivo
CONDITION DESCRIPTION: Mus musculus, ip, 0.5 h; 16 mg/kg intraperitoneally; read-out: Percentage inhibition (number of attempts to escape)
Numbers only here, please. The scale is %.

Incoming: Consider the molecule Cc1cccc(Nc2ncccc2C(=O)OCCN2CCN(C)CC2)c1C [Example 4, β-(N-methylpiperazino)ethyl nixylate] and give its measured change in vivo at 16 mg/kg.
Outgoing: -11

Incoming: Suppose we examine the molecule Cc1cccc(C)c1Nc1ncccc1C(=O)OCCN1CCOCC1 [Example 6] ; what change in vivo at 16 mg/kg value has been reported?
Outgoing: -13

Incoming: Quick check: change in vivo at 16 mg/kg of Cc1ccc(Nc2ncccc2C(=O)OCCN2CCOCC2)cc1Cl [Example 7] ?
Outgoing: -48

Incoming: Item O=C(OCCN1CCOCC1)c1cccnc1Nc1ccccc1 [Example 5, β-Morpholino ethyl 2-anilino nicotinate] has what recorded change in vivo at 16 mg/kg?
Outgoing: -12
